Give efflux ratio at 120 min, 1 µM for every item shown.
# EXPERIMENT_SUMMARY: Caco-2 Permeability Assay (bidirectional)
# Type: in vitro ADME
# RUN_PARAMETERS: human, Caco-2; (Papp B→A)/(Papp A→B)

Example cases with answers are listed next.
O=C(Cc1cccc(OC(F)(F)F)c1)Nc1ccc(CCCCc2nnc(NC(=O)Cc3cccc(F)c3)s2)nn1 [Compound 679] ... 2.6
CC(C(=O)Nc1nnc(CCCCc2ccc(NC(=O)Cc3ccccc3)nn2)s1)c1ccccc1 (centres unmarked) [Compound 616] ... 6
O=C(Cc1cccc(OC(F)(F)F)c1)Nc1ccc(CCCCc2nnc(NC(=O)Cc3cccc(OC(F)(F)F)c3)s2)nn1 [Compound 660] ... 3.9
O=C(Cc1ccccc1)Nc1ccc(CCCCc2nnc(NC(=O)Cc3ccccc3)s2)nn1 [Compound 295] ... 7.3
CC(C(=O)Nc1ccc(CCCCc2nnc(NC(=O)Cc3cccc(CNC(=O)OC(C)(C)C)c3)s2)nn1)c1ccccc1 (centres unmarked) [Compound 436] ... 6.6
O=C(Cc1cccc(OC(F)(F)F)c1)Nc1ccc(CCCCc2nnc(NC(=O)Cc3ccccc3)s2)nn1 [Compound 585] ... 3.1

Return reported efflux ratio at 120 min, 1 µM values for all items listed beneath this line.
1. O=C(Cc1cccc(OC(F)(F)F)c1)Nc1ccc(CCCCc2nnc(NC(=O)[C@H](O)c3ccccc3)s2)nn1 [Compound 705]
2. O=C(Cc1ccccc1Cl)Nc1ccc(CCCCc2nnc(NC(=O)Cc3ccccc3F)s2)nn1 [Compound 533]

1. 6
2. 7.6

###

# EXPERIMENT_SUMMARY: Caco-2 Permeability Assay (bidirectional)
# Assay type: in vitro ADME
# RUN_PARAMETERS: human, Caco-2; Direction A→B; 1 μM, 120 minutes, pH 7.4; unit not given (thresholds in 10^−6 cm/s)
Please assign No whenever Papp A→B at 120 min, 1 μM is at or above 8 ×10⁻⁶ cm/s, and Yes whenever it is below.

O=C(Cc1ccccc1)Nc1ccc(CCCCc2nnc(NC(=O)Cc3ccccn3)s2)nn1 [Compound 354] ... Yes

Determine if O=C(Cc1cccc(OC(F)(F)F)c1)Nc1ccc(CCCCc2nnc(NC(=O)Cc3cccc(F)c3)s2)nn1 [Compound 679] shows Papp A→B at 120 min, 1 μM strictly lower than 8 ×10⁻⁶ cm/s.
Yes

Determine if O=C(Cc1cccc(OC(F)(F)F)c1)Nc1ccc(CCCCc2nnc(NC(=O)Cc3ccccn3)s2)nn1 [Compound 670] shows Papp A→B at 120 min, 1 μM strictly lower than 8 ×10⁻⁶ cm/s.
No

Determine if CC(C(=O)Nc1ccc(CCCCc2nnc(NC(=O)Cc3cccc(CNC(=O)OC(C)(C)C)c3)s2)nn1)c1ccccc1 (centres unmarked) [Compound 436] shows Papp A→B at 120 min, 1 μM strictly lower than 8 ×10⁻⁶ cm/s.
Yes

Determine if O=C(Cc1cccc(OC(F)(F)F)c1)Nc1ccc(CCCCc2nnc(NC(=O)C(O)c3cccc(Cl)c3)s2)nn1 (centres unmarked) [Compound 447] shows Papp A→B at 120 min, 1 μM strictly lower than 8 ×10⁻⁶ cm/s.
Yes

Determine if O=C(Cc1cccc(OC(F)(F)F)c1)Nc1ccc(CCCCc2nnc(NC(=O)[C@@H](O)c3ccccc3)s2)nn1 [Compound 703] shows Papp A→B at 120 min, 1 μM strictly lower than 8 ×10⁻⁶ cm/s.
Yes
